target: β-glucosidase derived from Aspergillus niger (Aspergillus niger)
Sequence (A2RAL4 20-860): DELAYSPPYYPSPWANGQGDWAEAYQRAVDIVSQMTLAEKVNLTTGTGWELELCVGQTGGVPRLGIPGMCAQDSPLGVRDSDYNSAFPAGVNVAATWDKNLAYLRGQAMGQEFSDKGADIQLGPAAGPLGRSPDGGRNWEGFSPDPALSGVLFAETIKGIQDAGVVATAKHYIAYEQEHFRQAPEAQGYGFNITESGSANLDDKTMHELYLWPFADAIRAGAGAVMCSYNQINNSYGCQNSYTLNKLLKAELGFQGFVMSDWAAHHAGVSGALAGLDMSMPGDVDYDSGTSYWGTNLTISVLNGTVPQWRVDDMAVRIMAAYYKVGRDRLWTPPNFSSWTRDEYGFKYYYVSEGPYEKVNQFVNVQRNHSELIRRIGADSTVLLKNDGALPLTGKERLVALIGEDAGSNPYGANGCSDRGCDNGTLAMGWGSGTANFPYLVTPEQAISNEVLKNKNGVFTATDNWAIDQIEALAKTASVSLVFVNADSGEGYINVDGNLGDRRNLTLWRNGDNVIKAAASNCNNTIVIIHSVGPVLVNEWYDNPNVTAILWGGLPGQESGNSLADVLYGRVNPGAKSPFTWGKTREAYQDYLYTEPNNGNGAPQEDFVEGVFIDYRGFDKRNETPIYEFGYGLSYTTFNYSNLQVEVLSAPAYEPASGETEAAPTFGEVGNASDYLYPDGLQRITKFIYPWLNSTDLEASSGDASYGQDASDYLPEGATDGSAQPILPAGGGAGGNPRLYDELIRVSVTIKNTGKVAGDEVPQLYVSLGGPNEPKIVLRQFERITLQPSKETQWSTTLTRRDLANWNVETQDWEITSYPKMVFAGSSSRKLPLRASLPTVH
TEST READOUT: pIC50
In simple prose, pIC50 is minus the logarithm base ten of a concentration in moles per litre.

Task: So what pIC50 did OCC1OC(OCC2CCCC2)C(O)C(O)C1O (stereo not drawn) [CPEM-β-Glc, cyclopentylmethyl-β-glucoside] get with β-glucosidase derived from Aspergillus niger (Aspergillus niger)?
Output: 1.90

Where these numbers come from: patent US6372894B1
